Where these numbers come from: patent US20150344457A1

# EC50 values compiled below
Tested on: Z-138 cells
experimental.details: Z-138 Proliferation Assay (Cell Titer Glo, 5 days)
Format: cell-based
condition.summary: Homo sapiens, Table D-2

Before answering, review these 5 worked examples.
1) OC(COC1CCCCCC1)CN1CCc2ccccc2C1 (stereo not drawn)	> 40 µM
2) O=C1COc2ccc(-c3cccc(OCC(O)CN4CCc5ccccc5C4)c3)cc2N1 (stereo not drawn)	10 to 40 µM
3) OC(COC1CCN(Cc2ccccc2)CC1)CN1CCc2ccccc2C1 (stereo not drawn)	> 40 µM
4) CC1c2ccccc2CCN1CC(O)COc1cccc(-c2ccc3ncn(C)c3c2)c1 (stereo not drawn)	1 to 10 µM
5) OC(CNc1cc(-c2ccc3ncn(C4CCOCC4)c3c2)ccn1)CN1CCc2ccccc2C1 (stereo not drawn)	1 to 10 µM

INPUT: Tell me the measured EC50 of OC(CNc1cc(-c2ccc3ncn(C4COC4)c3c2)ccn1)CN1CCc2ccccc2C1 (stereo not drawn) , please.
OUTPUT: 1 to 10 µM

INPUT: // same read-out, input: Cn1ncc2c1CN(c1cccc(OCC(O)CN3CCc4ccccc4C3)c1)CC2 (stereo not drawn)
OUTPUT: > 20 µM

INPUT: Try OC(COc1cccc(-c2ccc3nc[nH]c3c2)c1)CN1CCc2ccccc2C1 (stereo not drawn) next.
OUTPUT: 10 to 40 µM

INPUT: Likewise for CN(C)c1ncc(-c2cccc(OCC(O)CN3CCc4ccccc4C3)c2)cn1 (stereo not drawn) ?
OUTPUT: 10 to 40 µM
